System: hPSC-NSCs
Assay: RT-PCR expression of dopamine neuron genes in hPSC-NSCs treated with small molecule hits
Format: cell-based, human
Details: hPSC-NSCs primed 7 days with Purmorphamine and FGF8, small molecule 2.5 μM for two weeks
Measured metric: MAP2 expression by RT-PCR
Lab note: record the figure alone, no unit after it.

| Molecule | MAP2 expression by RT-PCR |
| --- | --- |
| Nc1nc(Nc2ccccc2)nc2c1ncn2[C@@H]1O[C@H](CO)[C@@H](O)[C@H]1O [CV 1808] | 8.66 |

Query string: Please supply the value of reported MAP2 expression by RT-PCR for the item N[C@@H](CS(=O)O)C(=O)O [L-Cysteinesulfinic acid]
Result string: 9.52

Query string: Please supply the value of reported MAP2 expression by RT-PCR for the item O=C(O)Cc1cccnc1C(=O)O [Homoquinolinic acid]
Result string: 10.03

Query string: Please supply the value of reported MAP2 expression by RT-PCR for the item C/C(=C\c1ccc(C(=O)O)cc1)c1ccc2c(c1)C(C)(C)CCC2(C)C [TTNPB]
Result string: 6.36

Query string: Please supply the value of reported MAP2 expression by RT-PCR for the item Br.CCCN(CCC)C1CCc2cccc(O)c2C1 (stereo not shown) [8-Hydroxy-DPAT hydrobromide]
Result string: 14.43

Query string: Please supply the value of reported MAP2 expression by RT-PCR for the item Cc1nnc2ccc(-c3cccc(C(F)(F)F)c3)nn12 [CL 218872]
Result string: 8.94

Query string: Please supply the value of reported MAP2 expression by RT-PCR for the item N[C@@H]1CCN(O)C1=O [(R)-(+)-HA-966]
Result string: 10.66

Query string: Please supply the value of reported MAP2 expression by RT-PCR for the item Cc1cc(C(=O)O)sc1C(N)C(=O)O (stereo not shown) [3-MATIDA]
Result string: 10.7

Query string: Please supply the value of reported MAP2 expression by RT-PCR for the item CC(C)(C)c1cc(C(=O)/C=C/c2ccc(C(=O)O)cc2)cc(C(C)(C)C)c1 [Ch 55]
Result string: 5.25
